Target: T1, CD27 expressed on the cell surface (HT1080_CD27 cells) (human, UniProt P26842 20-260); also: test concentration or dose not given here
T1 sequence (looked up): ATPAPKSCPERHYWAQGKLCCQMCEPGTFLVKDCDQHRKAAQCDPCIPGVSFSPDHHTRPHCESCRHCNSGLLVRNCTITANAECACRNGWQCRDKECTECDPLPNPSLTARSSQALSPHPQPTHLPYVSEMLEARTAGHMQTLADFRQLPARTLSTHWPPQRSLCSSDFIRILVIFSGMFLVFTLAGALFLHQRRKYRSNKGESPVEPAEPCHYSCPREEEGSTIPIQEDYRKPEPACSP
Test: cell-based or functional assay
The binders listed here are annotated with their IL-8, cross-linked by F(ab')2 fragment [abs. corr.].
MEASURE NAME: IL-8, cross-linked by F(ab')2 fragment [abs. corr.] (abs. corr.)

>  <BINDER>
P018.S.01.A.B05 (antibody, V domains shown, V regions on human Ig constant parts; also called AB27_6) VH: QEQLEESGGRLVTPGGTLTLTCTASGFSLSSYDMSWVRQAPGKGLEWIGYIWSDGNTDYATWAAGRFTASRASTTVDLKMTSLTTEDTATYFCARGYTGFFLWGPGTLVTVSS VL: DVVMTQTPSSVSAAVGGTVTIKCQASQSIGSSYLSWYQQKPGQPPKLLIYKTSTLASGVPSRFKGSGSGTEFTLTISDLESDDAATYYCQCTYYGSSWRVAFGGGTEVVVK

>  <QUANTITATIVE READOUT>
1.88

$$$$
>  <BINDER>
P018.S.02.A.F06 (antibody, V domains shown, V regions on human Ig constant parts; also called AB27_36) VH: QSVEESGGRLVTPGTPLTLTCTVSGFSLSSYVMSWVRQAPGKGLEWIGYIDYGGTPYYASWAKGRFTISKTSTTVELKITSPTIEDTATYFCARGGYGGYILVTGLWGPGTLVTVSS VL: DVVMTQTPASVSEPVGGTVTIKCQASQSISSYCSWYQQRPGQPPKLLIYGASTLASGVPSRFKGSGSGTEYTLTISDLESADAATYYCQTYYGGGPFGNGFGGGTEVVVK

>  <QUANTITATIVE READOUT>
1.73

$$$$
